Data provenance is patent US20020028938A1.

Reported Endpoint: melting point

CC(C)Oc1c(-c2ccc(S(C)(=O)=O)cc2)cnn(-c2cccc(Cl)c2)c1=O [Example 201]
134 to 136 °C
Cc1ccc(-c2c(-c3ccc(S(C)(=O)=O)cc3)cnn(-c3ccc(F)cc3)c2=O)cc1 [Example 229]
242 to 244 °C
CC(C)Oc1c(-c2ccc(S(C)(=O)=O)cc2)cnn(-c2cccc(F)c2)c1=O [Example 202]
110 to 112 °C

melting point recorded for this compound, CS(=O)(=O)c1ccc(-c2cnn(CC(F)(F)F)c(=O)c2Oc2ccc(-c3ccccc3)cc2)cc1 [Example 268] , is 163 to 165 °C

* * *

- Target Or Test System: human amnionic whole cell cyclooxygenase-2 (WISH cells) (Homo sapiens, UniProt P35354)
- Construct: endogenous in cells
- Sequence (P35354 18-604): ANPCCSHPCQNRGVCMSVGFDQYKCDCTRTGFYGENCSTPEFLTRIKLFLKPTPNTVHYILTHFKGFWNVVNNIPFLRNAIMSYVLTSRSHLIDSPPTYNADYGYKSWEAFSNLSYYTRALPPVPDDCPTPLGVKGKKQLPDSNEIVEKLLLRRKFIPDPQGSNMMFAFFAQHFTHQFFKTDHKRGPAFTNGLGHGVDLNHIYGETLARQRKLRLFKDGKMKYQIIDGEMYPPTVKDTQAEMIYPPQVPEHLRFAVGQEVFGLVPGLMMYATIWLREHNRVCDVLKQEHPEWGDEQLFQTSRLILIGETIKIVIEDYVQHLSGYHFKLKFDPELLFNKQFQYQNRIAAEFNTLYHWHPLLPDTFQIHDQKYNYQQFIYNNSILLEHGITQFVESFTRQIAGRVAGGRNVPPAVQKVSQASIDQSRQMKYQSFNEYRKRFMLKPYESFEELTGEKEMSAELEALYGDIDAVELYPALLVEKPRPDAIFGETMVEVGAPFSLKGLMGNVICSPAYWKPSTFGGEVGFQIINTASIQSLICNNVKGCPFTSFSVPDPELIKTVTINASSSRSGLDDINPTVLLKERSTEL
- Experiment Summary: IL-1β induced PGE2 production in WISH cells
- Condition Set: read-out: Wish IC50 (parenthetical value)
Reported Endpoint: log10(IC50) (log10 of the value in nM)
Values reflect log10 of reported IC50 (nM).

Below, each entry is followed by its recorded log10(IC50) result.
CS(=O)(=O)c1ccc(-c2cnn(-c3cccc(Cl)c3)c(=O)c2Oc2ccccc2)cc1 [Example 343]
1.20
CS(=O)(=O)c1ccc(-c2cnn(-c3ccc(F)c(F)c3)c(=O)c2Oc2ccc(F)cc2)cc1 [Example 109]
1.26
NS(=O)(=O)c1ccc(-c2cnn(-c3ccc(F)cc3)c(=O)c2-c2ccc(F)cc2)cc1F [Example 72]
1.86

Could you report log10(IC50) for every entry in the following list?
1. NS(=O)(=O)c1ccc(-c2cnn(CC=C(F)F)c(=O)c2-c2ccc(F)cc2)cc1 [Example 143]
2. CC(C)CCc1c(-c2ccc(S(N)(=O)=O)cc2)cnn(-c2cccc(Cl)c2)c1=O [Example 392]
3. CC(C)COc1c(-c2ccc(S(C)(=O)=O)cc2)cnn(CC(F)(F)F)c1=O [Example 278]
4. CC(C)CCOc1c(-c2ccc(S(C)(=O)=O)cc2)cnn(C(C)(C)C)c1=O [Example 330]

1. 0.85
2. 1.30
3. 1.85
4. 0.70

* * *

- Test system: air pouch prostaglandin biosynthesis (Cox-2)
- Experiment Summary: Carrageenan induced air pouch prostaglandin biosynthesis model (CAP)
- Format: in vivo, rat
- Condition Set: 4 h; 3 mpk, rat; read-out: CAP % Inhib. @ 3 mpk
Reported Endpoint: inhibition in vivo at 3 mg/kg (%)
Answers are plain numbers, in %.

CC(C)=CCCOc1c(-c2ccc(S(C)(=O)=O)cc2)cnn(-c2ccc(F)c(F)c2)c1=O
89
NS(=O)(=O)c1ccc(-c2cnn(CC=C(F)F)c(=O)c2-c2ccc(F)cc2)cc1
59
CS(=O)(=O)c1ccc(-c2cnn(-c3cccc(Cl)c3)c(=O)c2OCCC2CC2)cc1
48

Then this compound:
inhibition in vivo at 3 mg/kg recorded for this compound, `CC(C)COc1c(-c2ccc(S(N)(=O)=O)cc2)cnn(-c2ccc(F)c(F)c2)c1=O` , is 68.5

* * *

Consider the following molecules; for each one, report its inhibition at 200 µM.
- Target Or Test System: recombinant human Cox-1 (r-hu Cox1) (Homo sapiens, UniProt P23219)
- Construct: made in house; host or cells: baculovirus/Sf9 insect cells (microsomes)
- Sequence (P23219 24-599): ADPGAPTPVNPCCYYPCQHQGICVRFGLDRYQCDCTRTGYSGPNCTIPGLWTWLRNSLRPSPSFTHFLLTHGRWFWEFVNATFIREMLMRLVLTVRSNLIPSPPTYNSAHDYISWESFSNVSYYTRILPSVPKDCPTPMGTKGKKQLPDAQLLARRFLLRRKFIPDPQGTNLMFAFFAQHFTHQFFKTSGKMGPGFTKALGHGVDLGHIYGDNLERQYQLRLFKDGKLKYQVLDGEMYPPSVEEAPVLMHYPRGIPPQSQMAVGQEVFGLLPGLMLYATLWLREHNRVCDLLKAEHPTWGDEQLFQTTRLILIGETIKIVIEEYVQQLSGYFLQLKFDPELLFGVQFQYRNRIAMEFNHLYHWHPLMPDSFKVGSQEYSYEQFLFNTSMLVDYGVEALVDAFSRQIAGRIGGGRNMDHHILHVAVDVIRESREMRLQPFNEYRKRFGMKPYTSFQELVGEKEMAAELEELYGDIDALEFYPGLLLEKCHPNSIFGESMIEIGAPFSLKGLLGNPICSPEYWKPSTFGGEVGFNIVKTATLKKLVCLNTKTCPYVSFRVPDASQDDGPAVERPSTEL
- Experiment Summary: Recombinant human PGHS-1 enzyme assay (RHUCX1)
- Format: biochemical
- Condition Set: 200 μM; read-out: RHUCX1 % Inh. at Dose
One number for each entry, in %.

Below, each entry is followed by its recorded inhibition at 200 µM result.
CC(C)(C)COc1c(-c2ccc(S(C)(=O)=O)cc2)cnn(CC(F)(F)F)c1=O
0
CC(C)(C)COc1c(-c2ccc(S(N)(=O)=O)cc2)cnn(CC(F)(F)F)c1=O
0
CC(C)COc1c(-c2ccc(S(N)(=O)=O)cc2)cnn(CC(F)(F)F)c1=O
5

Then this molecule:
Lab entry: recombinant human Cox-1 (r-hu Cox1) (Homo sapiens, UniProt P23219) assay, molecule `CS(=O)(=O)c1ccc(-c2cnn(-c3ccc(F)c(F)c3)c(=O)c2-c2ccc(Cl)cc2)cc1` , inhibition at 200 µM = 19

* * *

- Target Or Test System: recombinant human Cox-1 (r-hu Cox1) (Homo sapiens, UniProt P23219)
- Construct: made in house; host or cells: baculovirus/Sf9 insect cells (microsomes)
- Experiment Summary: Recombinant human PGHS-1 enzyme assay (RHUCX1)
- Assay type: biochemical
- Condition Set: 100 μM
Consider the following molecules; for each one, report its RHUCX1 % Inh. at Dose (μM).

Could you report RHUCX1 % Inh. at Dose (μM) for every entry in the following list?
1. CS(=O)(=O)c1ccc(-c2cnn(CC(F)(F)F)c(=O)c2SC2CCCC2)cc1
2. CC(C)=CCCOc1c(-c2ccc(S(C)(=O)=O)cc2)cnn(-c2ccc(F)cc2)c1=O
3. CC(C)=CCOc1c(-c2ccc(S(C)(=O)=O)cc2)cnn(-c2ccc(F)cc2)c1=O
4. CS(=O)(=O)c1ccc(-c2cnn(CC#Cc3ccccc3)c(=O)c2-c2ccc(F)cc2)cc1

1. 0 @ 100%
2. 7 @ 100%
3. 53 @ 100%
4. 19 @ 100%

* * *

- Target Or Test System: recombinant human Cox-2 (r-hu Cox-2) (Homo sapiens, UniProt P35354)
- Construct: made in house; host or cells: baculovirus/Sf9 insect cells (microsomes)
- Sequence (P35354 18-604): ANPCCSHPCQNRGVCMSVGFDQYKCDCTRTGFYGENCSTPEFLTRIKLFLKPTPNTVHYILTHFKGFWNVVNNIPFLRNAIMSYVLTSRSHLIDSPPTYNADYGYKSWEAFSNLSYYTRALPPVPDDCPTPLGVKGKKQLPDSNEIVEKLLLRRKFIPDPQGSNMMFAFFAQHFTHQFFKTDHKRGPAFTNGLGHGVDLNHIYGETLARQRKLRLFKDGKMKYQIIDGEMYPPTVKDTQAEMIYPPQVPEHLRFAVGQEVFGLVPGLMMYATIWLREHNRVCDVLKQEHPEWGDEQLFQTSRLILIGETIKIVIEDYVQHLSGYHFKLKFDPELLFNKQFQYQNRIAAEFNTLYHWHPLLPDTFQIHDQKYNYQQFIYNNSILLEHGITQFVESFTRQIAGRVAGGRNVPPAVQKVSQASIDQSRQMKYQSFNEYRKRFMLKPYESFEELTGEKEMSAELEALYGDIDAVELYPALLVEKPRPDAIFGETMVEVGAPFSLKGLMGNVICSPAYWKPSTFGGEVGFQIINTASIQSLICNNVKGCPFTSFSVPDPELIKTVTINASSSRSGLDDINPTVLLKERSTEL
- Experiment Summary: Recombinant human PGHS-2 enzyme assay (RHUCX2)
- Assay type: biochemical
- Condition Set: 10 μM; read-out: RHUCX2 % Inh. at Dose
Consider the following molecules; for each one, report its inhibition at 10 µM.
Answers are plain numbers, in %.

CC(C)CCCc1c(-c2ccc(S(C)(=O)=O)cc2)cnn(-c2ccc(F)c(F)c2)c1=O
14
CS(=O)(=O)c1ccc(-c2cnn(CC(F)(F)F)c(=O)c2SC2CCCCC2)cc1
93
CS(=O)(=O)c1ccc(-c2cnn(-c3ccc(F)cc3)c(=O)c2N2CCCCC2)cc1
79
O=c1c(-c2ccc(F)cc2)c(-c2ccc(S(=O)(=O)C(F)(F)F)cc2)cnn1Cc1ccccc1
2
CS(=O)(=O)c1ccc(-c2cnn(-c3cccc(Cl)c3)c(=O)c2CCc2ccccc2)cc1
94
C[S+]([O-])c1ccc(-c2cnn(CC(F)(F)F)c(=O)c2-c2ccc(Cl)cc2)cc1 (stereo not drawn)
82
Cc1cc(-c2c(-c3ccc(S(C)(=O)=O)cc3)cnn(-c3ccc(F)c(Cl)c3)c2=O)ccc1F
99
CS(=O)(=O)c1ccc(-c2cnn(-c3ccc(F)c(F)c3)c(=O)c2Cc2ccc(F)cc2)cc1
82
CS(=O)(=O)c1ccc(-c2cnn(-c3ccccc3)c(=O)c2-c2ccc(F)cc2)cc1
97
CS(=O)(=O)c1ccc(-c2cnn(CC(F)(F)F)c(=O)c2Oc2cccnc2)cc1
53

Could you report inhibition at 10 µM for every entry in the following list?
1. CS(=O)(=O)c1ccc(-c2cnn(-c3ccc(Cl)s3)c(=O)c2-c2ccc(Cl)cc2)cc1
2. CCCCC(CC)COc1c(-c2ccc(S(C)(=O)=O)cc2)cnn(-c2ccc(F)cc2)c1=O (stereo not drawn)

[100, 34]
